Test system: Human peripheral blood mononuclear cells (PBMCs)
Type: cell-based
Conditions: geometric mean, at least 6 replicates, Example 5b; read-out: anti-CD3 PBMC/IL-2 IC50
Source text: Human peripheral blood mononuclear cells (PBMCs) were used to assess the effects of Kv1.3 blocker reference compounds on T-cell activation as determined by IL-2 release after stimulation with anti-CD3. Human PBMCs were obtained from Precision for Medicine (Frederick, MD). Cells from 5 donors were used. Plate-bound anti-CD3 was used to stimulate bulk T cells in the PBMC preparations. Briefly, 96-well plates were coated with anti-CD3 antibody for app. […]
Bridges are numbered along the chain shown (N, C = ends).

substance	IC50, nM
H-NMDMRCSASVECKQKCLKAIGSIFGKCMNKKCKCYPRRRTA-NH2 (disulfide 6-27, 12-32, 16-34) [compound 28]	0.06
